ASSAY COMMENT: GHS categories as the set defines them, by LD50: 1 up to 5, 2 up to 50, 3 up to 300, 4 up to 2000, 5 above 2000 mg/kg
ASSAY SETUP: rat; in vivo; po
Assignment: determine reported GHS category for the given compounds.

I have this compound here, CCN1CCN(C(=O)N[C@@H](C(=O)N[C@@H]2C(=O)N3C(C(=O)O)=C(CSc4nnnn4C)CS[C@H]23)c2ccc(O)cc2)C(=O)C1=O , and I need its recorded GHS category.
5

I have this compound here, O=C(c1ccc(Cl)c(Cl)c1)c1ccccc1-c1ncc[nH]1 , and I need its recorded GHS category.
4

I have this compound here, CN1CC(O)N(c2cc(C(C)(C)C)on2)C1=O (stereo not drawn) , and I need its recorded GHS category.
4

I have this compound here, O=C1c2ccccc2C(=O)N1CCO , and I need its recorded GHS category.
5

I have this compound here, CO/N=C(\C(=O)N[C@@H]1C(=O)N2C(C(=O)[O-])=C(C[N+]34CCC(C(N)=O)(CC3)CC4)CS[C@H]12)c1nsc(N)n1 , and I need its recorded GHS category.
5

I have this compound here, CCCCCCCCOc1ccccc1C(=O)Nc1ccc(C(=O)OCC[N+](C)(CC)CC)cc1 , and I need its recorded GHS category.
4

I have this compound here, NS(=O)(=O)c1cc2c(cc1Cl)NC(Cc1ccccc1)NS2(=O)=O (stereo not drawn) , and I need its recorded GHS category.
5

I have this compound here, CN(c1ccccc1)S(=O)(=O)c1cc(O)c2c(N=Nc3ccc(NC(=O)CCl)cc3S(=O)(=O)O)c(N)ccc2c1 , and I need its recorded GHS category.
5

I have this compound here, CCCC(=O)N(C)C(=O)Oc1cccc2c1OC(C)(C)O2 , and I need its recorded GHS category.
4

I have this compound here, CCCCCC(CCC)COC(=O)c1ccccc1C(=O)OCC(CCC)CCCCC (stereo not drawn) , and I need its recorded GHS category.
5

I have this compound here, CCCCCCOC(=O)C(C)CC (stereo not drawn) , and I need its recorded GHS category.
5

I have this compound here, Cc1ccc2c(c1)c(-c1ccccc1)nn2CCCN(C)C , and I need its recorded GHS category.
4

I have this compound here, CC(C)(C)OOC(C)(C)CCC(C)(C)OOC(C)(C)C , and I need its recorded GHS category.
5

I have this compound here, ICC1CCC(CI)CC1 (stereo not drawn) , and I need its recorded GHS category.
5

I have this compound here, CC(=O)c1ccc2c(c1)OC(C)C(=O)N2C (stereo not drawn) , and I need its recorded GHS category.
5

I have this compound here, CC(C)(CO)CO , and I need its recorded GHS category.
5

I have this compound here, CCCCCCCCCCCCSN(C)C(=O)Oc1cccc2c1OC(C)(C)C2 , and I need its recorded GHS category.
3

I have this compound here, CC(CC=O)CCCC(C)(C)O (stereo not drawn) , and I need its recorded GHS category.
5

I have this compound here, COc1ccc([C@@H]2CC(=O)c3c(O)cc(O[C@@H]4O[C@H](CO[C@@H]5O[C@@H](C)[C@H](O)[C@@H](O)[C@H]5O)[C@@H](O)[C@H](O)[C@H]4O)cc3O2)cc1O , and I need its recorded GHS category.
5

I have this compound here, CC(C)(C)CNc1nnc(-c2ccccc2)c2ccccc12 , and I need its recorded GHS category.
5

I have this compound here, CN1C(=O)COc2cc(C(=O)C=Cc3ccccc3)ccc21 , and I need its recorded GHS category.
5

I have this compound here, CCCCCCCCCCCCCC , and I need its recorded GHS category.
5

I have this compound here, Clc1cc(Cl)c2oc(C3(Cn4ccnc4)OCCCO3)cc2c1 , and I need its recorded GHS category.
4
